Please provide measured koff for the entries that follow.
Molecular target: T1, human PDGFRb.hFc (human)
T1 construct: Soluble dimeric construct with human Fc; also called hPDGFRb.hFc
Assay: SPR, mAb captured, 25 C
One number for each entry, in s⁻¹.

Take a look at these entries with their results.
[
  {
    "Binder": "H4H3095S (antibody, human IgG4, V domains shown, human IgG4 Fc (H4H prefix)) VH: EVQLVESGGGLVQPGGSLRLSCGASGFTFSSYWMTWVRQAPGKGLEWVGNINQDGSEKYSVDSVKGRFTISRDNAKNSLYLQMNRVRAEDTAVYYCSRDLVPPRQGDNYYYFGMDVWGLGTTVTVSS VL: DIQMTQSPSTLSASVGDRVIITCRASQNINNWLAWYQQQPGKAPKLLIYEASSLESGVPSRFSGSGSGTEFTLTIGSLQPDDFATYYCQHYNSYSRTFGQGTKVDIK",
    "koff / s⁻¹": 0.000232
  },
  {
    "Binder": "H4H3103S (antibody, human IgG4, V domains shown, human IgG4 Fc (H4H prefix)) VH: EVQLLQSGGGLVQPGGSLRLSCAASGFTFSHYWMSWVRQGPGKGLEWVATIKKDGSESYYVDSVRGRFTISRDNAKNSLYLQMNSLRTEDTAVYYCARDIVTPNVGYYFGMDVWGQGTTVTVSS VL: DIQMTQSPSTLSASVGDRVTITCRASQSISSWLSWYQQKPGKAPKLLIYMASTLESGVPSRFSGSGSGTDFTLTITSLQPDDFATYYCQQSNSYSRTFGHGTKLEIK",
    "koff / s⁻¹": 0.000164
  },
  {
    "Binder": "H4H3096S (antibody, human IgG4, V domains shown, human IgG4 Fc (H4H prefix)) VH: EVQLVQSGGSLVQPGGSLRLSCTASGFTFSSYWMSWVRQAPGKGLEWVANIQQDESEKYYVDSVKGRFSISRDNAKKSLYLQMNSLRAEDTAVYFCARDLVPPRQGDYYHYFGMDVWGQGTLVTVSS VL: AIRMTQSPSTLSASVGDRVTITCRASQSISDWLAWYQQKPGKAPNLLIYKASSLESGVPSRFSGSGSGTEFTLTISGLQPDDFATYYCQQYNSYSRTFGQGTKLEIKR",
    "koff / s⁻¹": 0.00026
  }
]

Switching to the query record.
-- ask What does the data say about its koff? Entry: H4H3102S (antibody, human IgG4, V domains shown, human IgG4 Fc (H4H prefix)) VH: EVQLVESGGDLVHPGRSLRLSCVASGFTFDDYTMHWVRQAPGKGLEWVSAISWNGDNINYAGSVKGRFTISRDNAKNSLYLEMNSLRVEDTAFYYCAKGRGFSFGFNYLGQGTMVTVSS VL: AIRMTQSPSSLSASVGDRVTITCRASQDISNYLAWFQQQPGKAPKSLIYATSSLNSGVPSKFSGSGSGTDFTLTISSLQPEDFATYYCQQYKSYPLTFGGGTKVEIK
-- reply 0.000118
